Read-out: Vascular cell adhesion molecule 1 (VCAM1), VCAM1 (gene 7412)
TEST METHOD NOTES: BSK_4H_VCAM1: BioMAP Diversity Plus: 4H Assay for Vascular cell adhesion molecule 1 (VCAM1) Biomarker Activity (AID 2283033)
EXPERIMENTAL SETUP: primary human endothelial cells (HUVEC); actives raise or lower the signal
Activity calls are given as the source filed them. The calls were made as follows: active = hit-call score of the fitted dose curve at least 0.9, where 1 is the maximum; inactive = score below 0.9.
// one of active, inactive, no free text

Example entries begin here.
QUERY: So what was the verdict on `COc1ccc(/C=C/S(=O)(=O)NC(=O)c2ccc(C)cc2Cl)cc1` in this test?
RESULT: inactive

QUERY: // next record `C1N2CN3CN1CN(C2)C3`
RESULT: inactive

QUERY: // next record `CN(C)c1ccc(Cc2ccc(N(C)C)cc2)cc1`
RESULT: inactive

QUERY: // next record `CCCCCCCCO`
RESULT: inactive

QUERY: // next record `CCCC(=O)OCC`
RESULT: inactive

Next:
QUERY: So what was the verdict on `Nc1nc2ncc(CNc3ccc(C(=O)N[C@@H](CCC(=O)O)C(=O)O)cc3)nc2c(=O)[nH]1` in this test?
RESULT: inactive

QUERY: // next record `C=CC(=C)CCC=C(C)C`
RESULT: inactive

QUERY: // next record CCOC(=O)COc1ccc2c(c1)CC(NCC(O)c1cccc(Cl)c1)CC2 (configuration not stated)
RESULT: active

QUERY: // next record `C=CCCCCCCCCC(=O)O`
RESULT: inactive

QUERY: // next record CC/C(=C\C(=N/O)C(N)=O)C(C)[N+](=O)[O-] (configuration not stated)
RESULT: inactive

QUERY: // next record `CC(C)=CCC/C(C)=C\CO`
RESULT: inactive

QUERY: // next record COc1ccc(-n2nc(C(F)F)cc2-c2ccc(S(C)=O)cc2)cc1 (configuration not stated)
RESULT: inactive

QUERY: // next record `Cc1ccc(C)c(O)c1`
RESULT: inactive

QUERY: // next record `CC(=O)c1ccc2c(c1)[C@H](NC(=O)c1ccc(F)cc1)[C@@H](O)C(C)(C)O2`
RESULT: inactive

QUERY: // next record `Cc1c(-c2cccnc2)c2ccccc2n1CCCCC(=O)O`
RESULT: inactive

QUERY: // next record `COCCOc1cc2cc(C(=O)NC3CCN(C(C)C)CC3)n(CC(=O)Nc3ccc(Cl)cn3)c2cn1`
RESULT: inactive

QUERY: // next record `CCCCCCc1ccc(O)cc1O`
RESULT: active

QUERY: // next record `Cn1c(=O)c2c(ncn2C)n(C)c1=O`
RESULT: inactive

QUERY: // next record `C1=CCCC=CCCC=CCC1`
RESULT: inactive

QUERY: // next record O=C(O)CC(O)C(=O)O (configuration not stated)
RESULT: inactive

QUERY: // next record `Cc1ccc(N)cc1O`
RESULT: inactive

QUERY: // next record `COC(=O)c1c(Cl)c(Cl)c(C(=O)OC)c(Cl)c1Cl`
RESULT: inactive
